The measurements presented in this section are drawn from the RNAGym collection of RNA variant scans (doi:10.7554/elife.80360).

B1: HDV Ribozyme (parent)
chain: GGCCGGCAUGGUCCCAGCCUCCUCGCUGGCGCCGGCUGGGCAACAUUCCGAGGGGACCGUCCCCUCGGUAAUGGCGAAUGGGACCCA

Variants of: B1
Assay Protocol: self-cleavage, relative activity (ratio to wild type); higher = more cleavage; co-transcriptional
Measured Parameter: self-cleavage
Keep the answer to the number alone.

-- ask Need self-cleavage, item GGCCGGCAGGGUCCCAGCCUCCUCGCUGGCGCCGGCUGGGCAACAUUACGAGGGGACCGUCCCCUCGGUAAUGGCGAAUGGGACCCA [U9G C48A]
-- reply 1.25

-- ask Next up: GGACGGCAUGGUCCCAGCCUCCUCGCUGGCGCCGGCUGGGCAACAUUCCGAGGGGACCGUCCCCUCGGUAAUCGCGAAUGGGACCCA [C3A G73C]
-- reply 0.0755

-- ask Next up: GGCCGGCAAGGUCCCAGCCUCCUCGCUGGCGCCGGCUGGGCAACAUUCCGAGGGGACCGUCCCCUCGGUAAUGGCGAAUGCGACCCA [U9A G81C]
-- reply 0.35

-- ask Next up: GGCCGGCAUGGUCCCAGCCUCCUCGCUGGCGCCGGCUGGGAAACAUUCCGAGGGGACCGUCCCCUCAGUAAUGGCGAAUGGGACCCA [C41A G67A]
-- reply 0.914

-- ask Next up: GGCCGGCAUGUUCCCAGCCUCCUCGCUGGCGCCGGCUGGGCAACAUUACGAGGGGACCGUCCCCUCGGUAAUGGCGAAUGGGACCCA [G11U C48A]
-- reply 0.423

-- ask Next up: GGCCGGCAUGGUCCCAGCCUCCUCGCUGGCGCCGGCUGGGCAACAUUCCGAGGGGGCCGUCCCCUGGGUAAUGGCGAAUGGGACCCA [A56G C66G]
-- reply 1.01

-- ask Next up: GGCCGGCAUGGUCCCAGCCUCCUCGCAGGCGCCGGCUGGGCAACAUUCCGAGGGGACCGUCCCAUCGGUAAUGGCGAAUGGGACCCA [U27A C64A]
-- reply 0.703

-- ask Next up: GGCCGGCAUGGUCCCAGCCUCCUCGCUGGCGCCGGCUGGGCAACAUUCCGAGGGGACCGUUCCCUCGGGAAUGGCGAAUGGGACCCA [C61U U69G]
-- reply 0.864

-- ask Next up: GGCCGGGAUGGUCCCAGCCUCCUCGCUGGCGCCGGCUGGGCAACAUUCCGAGGGGACCGUCCCCUCGGUAAUGGCGAAUAGGACCCA [C7G G80A]
-- reply 0.145

-- ask Next up: GGCCAGCAUGGUCCCAGCCUCCUCGCUGGCGCCGGCUGGGCAACAUUCCGAGGGGACCGUCCCCUCGGUAAUGGCGAAUAGGACCCA [G5A G80A]
-- reply 0.143

-- ask Next up: GGCCGGCAUGGUCCCAGCCUCCUCGCUGGCGGCGGCUGGGCAACAUUCCGAGAGGACCGUCCCCUCGGUAAUGGCGAAUGGGACCCA [C32G G53A]
-- reply 0.205
